B1: Ribonuclease, P00648 (parent)
chain: MMKMEGIALKKRLSWISVCLLVLVSAAGMLFSTAAKTETSSHKAHTEAQVINTFDGVADYLQTYHKLPDNYITKSEAQALGWVASKGNLADVAPGKSIGGDIFSNREGKLPGKSGRTWREADINYTSGFRNSDRILYSSDWLIYKTTDHYQTFTKIR

- Variants of: B1
- studyConditions: Bacillus amyloliquefaciens; pH 6.3; 25 °C; Urea; Fluorescence; MES 100 mM; reversible: yes; structure 1BNI; whole UniProt chain shown
Could you please report measured denaturant m value for the items listed next?
Dear colleague, please return just the value in kcal/mol/M, with no unit written.

Sample D140N ; denaturant m value observed: 1.99

Sample R116M ; denaturant m value observed: 2.14

Sample R130K ; denaturant m value observed: 1.68

Sample D122N ; denaturant m value observed: 1.69

Sample R130Q ; denaturant m value observed: 2.28

Sample R116S ; denaturant m value observed: 1.86
